Reference for the values: patent US10604476B2

- Tested on: gross motor function
- procedure_text: Fixed speed rotorod, rat (gross motor function)
- experimental_context: Sprague-Dawley, in vivo, po
Listing: ED50 at 0.5 hour of selected compounds

input: ED50 at 0.5 hour lookup needed for CN(CC(N)=O)c1cc(C(F)(F)F)cc(C(F)(F)F)c1 , thanks.
output: > 500 mg/kg

input: ED50 at 0.5 hour lookup needed for C[C@@H](Oc1cc(Cl)cc(C(F)(F)F)c1)C(N)=O , thanks.
output: > 500 mg/kg

input: ED50 at 0.5 hour lookup needed for NC(=O)COc1cc(C(F)(F)F)cc(C(F)(F)F)c1 , thanks.
output: > 500 mg/kg
